- Test system: NF-κB
- method_notes: NF-κB assay: THP1-NF-κB-LUC cells, LPS-stimulated secreted luciferase
- Format: cell-based
- condition_info: THP1-NF-κB-LUC cells; compounds 2 hours before LPS (10 ng/mL) for 18 hours; secreted luciferase; read-out: IC50 (NF-κB assay)
# maps each entry to its IC50

Measured IC50 of CC(=O)N1CCOc2cc(S(=O)(=O)Nc3ccc(Cl)cc3)c(C)cc21 : 100 to 1000 nM

The recorded IC50 for entry CCC1Oc2c(cc(Cl)cc2S(=O)(=O)Nc2ccc(OC)c(Cl)c2)NC1=O (stereo not drawn) equals < 100 nM

The molecule COc1ccc(NS(=O)(=O)c2cc3c(cc2C)NC(=O)CO3)c(OC)c1 showed IC50 equal to > 10000 nM

Given item CCc1cccc(NS(=O)(=O)c2cc(Br)cc3c2OC(C)C(=O)N3C)c1 (stereo not drawn) , the value recorded as its IC50 is 100 to 1000 nM

Note to self: IC50 recorded for CCOc1ccc(NS(=O)(=O)c2cc3c(cc2C)N(C)CCO3)cc1 was > 10000 nM

Next:
The reported IC50 of the molecule CCc1ccc(NS(=O)(=O)c2cc3c(cc2Br)NC(=O)CO3)cc1 was < 100 nM

Lab book: IC50 of CC1Oc2cc(S(=O)(=O)Nc3ccc(Cl)cc3)c(Br)cc2N(C)C1=O (stereo not drawn) noted as 1000 to 10000 nM

For record CC(C)(C)c1ccc(S(=O)(=O)c2c[nH]c3ccc(Br)cc3c2=O)cc1 the listed IC50 is 1000 to 10000 nM

Noted for CCC1Oc2c(cc(Br)cc2S(=O)(=O)NCCc2ccc(OC(F)(F)F)cc2)NC1=O (stereo not drawn) : its IC50 reads 1000 to 10000 nM
